experiment: Partition coefficient of compound between n-octanol and PBS (pH7.4); assay type: physicochemical; details: octanol/water, pH 7.4
reported-endpoint: Lipophilicity

Fc1ccc(-c2cn3c(-c4ccc5[nH]ncc5c4F)c(C(F)(F)F)nc3cn2)cc1C(F)(F)C(F)(F)F	5.6 =

[in] Record request: Lipophilicity value, item CCc1nc2cnc(-c3ccc(F)c(C(F)(F)C(F)(F)F)c3)cn2c1-c1c(F)cc(O)cc1F
[out] 6.33 =

[in] What about this compound? Fc1c(-c2c(C(F)(F)F)nc3cnc(-c4cccc(C(F)(F)C(F)(F)F)c4)cn23)ccc2[nH]ncc12
[out] 4.5 =

[in] Request: COc1ccc(-c2cnc3cnc(-c4cccc(C(C)C)c4)cn23)cc1
[out] 5.36 =

[in] Same for COc1ccc(-c2nnc3ccc(-c4cccc(C(C)C)c4)cn23)cc1
[out] 4.71 =

[in] Now consider COc1ccc(-c2c(C)nn3cnc(-c4cccc(C(F)(F)F)c4)cc23)cc1O and answer again.
[out] 3.73 =

* * *

assay: Partition coefficient of compound between n-octanol and PBS (pH7.4); format: physicochemical; conditions: octanol/water, pH 7.4
reported-endpoint: Lipophilicity

Consider the worked cases shown below.
COc1ccc(-c2c(C(F)(F)F)nc3cnc(-c4cccc(C(F)(F)C(F)(F)F)c4)cn23)cc1O	4.65 =
CC(C)c1nn2cnc(-c3cccc(C(F)(F)F)c3)cc2c1-c1c(F)cc(O)cc1F	5.11 =
Fc1ccc(-c2cn3c(-c4ccc5[nH]ncc5c4F)c(C4CC4)nc3cn2)cc1C(F)(F)F	4.7 =

[in] # lookup: Lipophilicity of Oc1cc(F)c(-c2cnc3cnc(-c4cccc(C(F)(F)F)c4)cn23)c(F)c1
[out] 3.12 =

[in] Proceed to Cc1nc2cnc(-c3ccc(F)c(C(F)(F)F)c3)cn2c1-c1c(F)cc(O)cc1F
[out] 5.37 =

* * *

assay: Mean plasma concentration at 4h in Swiss albino male mice at […] per compound (administered orally in a mixture of 5 compounds to 3 mice) assessed by LCMS/MS.; format: ADME, organism-based; conditions: mouse, po
yes (1) means recorded concentration at 4 h is 60 ng/mL or above; no (0) means it is below 60 ng/mL.

Consider the worked cases shown below.
Fc1ccc(-c2cn3c(-c4ccc5[nH]ncc5c4)c(C(F)(F)F)nc3cn2)cc1C(F)(F)F	yes (1)
CC(C)c1cc(-c2cn3c(-c4ccc5[nH]ncc5c4F)c(C4CC4)nc3cn2)ccc1F	yes (1)
CC(C)c1nc2cnc(-c3cccc(S(F)(F)(F)(F)F)c3)cn2c1-c1c(F)cc(O)cc1F	no (0)

[in] Does Oc1cc(F)c(-c2cnc3cnc(-c4cccc(C(F)(F)F)c4)cn23)c(F)c1 have a reported concentration at 4 h of at least 60 ng/mL?
[out] yes (1)

[in] Another compound to look at: COc1ccc(-c2c(C3CC3)nc3cnc(-c4cccc(C(F)(F)F)c4)cn23)cc1O
[out] no (0)

[in] Record: Fc1ccc(-c2cn3c(-c4ccc5[nH]ncc5c4F)c(C(F)(F)F)nc3cn2)cc1CC(F)(F)F
[out] no (0)

[in] Do the same for CCc1nc2cnc(-c3ccc(F)c(C(F)(F)F)c3)cn2c1-c1ccc2[nH]ncc2c1F please
[out] yes (1)

[in] Same question, Cc1nc2cnc(-c3cccc(C(F)(F)C(F)(F)F)c3)cn2c1-c1c(F)cc(O)cc1F this time
[out] no (0)

[in] Another compound to check: COc1ccc(-c2c(C)nc3ccc(-c4cccc(C(F)(F)F)c4)cn23)cc1O
[out] no (0)

[in] Could you do the same for CC(C)c1nc2cnc(-c3cccc(C(F)(F)F)c3)cn2c1-c1ccc(OP(=O)(O)O)cc1F , please?
[out] no (0)

[in] Same for Cc1nc2cnc(-c3ccc(F)c(C(F)(F)F)c3)cn2c1-c1c(F)cc(O)cc1F
[out] yes (1)

[in] Try the compound Fc1ccc(-c2cn3c(-c4ccc5[nH]ncc5c4F)c(C(F)(F)F)nc3cn2)cc1C1CC1
[out] yes (1)

[in] Next record, please: COc1cc(-c2c(C(C)C)nc3cnc(-c4cccc(C(F)(F)F)c4)cn23)cc2cn[nH]c12
[out] yes (1)

[in] And what about the compound Oc1ccc(-c2cnn3ccc(-c4cccc(C(F)(F)F)c4)cc23)c(F)c1 ?
[out] no (0)

* * *

Catalogue of EC50 values
test system: Schistosoma mansoni; experiment: Concentration required to kill 50% of 42 day old worms 5 days after drug treatment.; assay type: functional, organism-based; conditions: Puerto Rican, 120 h

Here are 5 compounds together with their reported answers.
Oc1cc(F)c(-c2c(C3CCC3)nc3cnc(-c4ccc(F)c(C(F)(F)F)c4)cn23)c(F)c1	58.6 nM
CCc1nc2cnc(-c3cccc(C(F)(F)F)c3)cn2c1-c1ccc(OC)c(O)c1	< 133 nM
CC(C)c1cccc(-c2cn3c(-c4ccc(O)cc4F)cnc3cn2)c1	262 nM
Fc1ccc(-c2cn3c(-c4ccc5[nH]ncc5c4F)c(C(F)(F)F)nc3cn2)cc1Br	47.9 nM
COc1ccc(-c2cnc3cnc(-c4cccc(C(C)C)c4)cn23)cc1	1850 nM

[in] Sample CC(C)c1nc2cnc(-c3cccc(S(F)(F)(F)(F)F)c3)cn2c1-c1c(F)cc(O)cc1F — what was its EC50?
[out] 23.8 nM

[in] Now the same for Oc1cc(F)c(-c2c(C3CC3)nc3cnc(-c4ccc(F)c(C(F)(F)F)c4)cn23)c(F)c1
[out] 44.3 nM

[in] What about this compound? Oc1cc(F)c(-c2c(C3CC3)nc3cnc(-c4ccc(F)c(S(F)(F)(F)(F)F)c4)cn23)c(F)c1
[out] 5.78 nM

[in] Repeat for the following compound: Cc1nc2cnc(-c3cccc(C(F)(F)F)c3)cn2c1-c1ccc(O)cc1F
[out] 290 nM

[in] And the next one, Cc1nc2cnc(-c3ccc(F)c(C(F)(F)F)c3)cn2c1-c1c(F)cc(O)cc1F ?
[out] 118 nM

[in] And the next one, Fc1ccc(-c2cn3c(-c4ccc5[nH]ncc5c4F)c(C4CC4)nc3cn2)cc1C(F)(F)C(F)(F)F ?
[out] 23.2 nM

[in] Similarly, CC(C)c1nc2cnc(-c3ccc(F)c(C(F)(F)F)c3)cn2c1-c1c(F)cc(OP(=O)(O)O)cc1F ?
[out] 27.2 nM

* * *

Listing of recorded concentration at 24 h by entry.
assay: Mean plasma concentration at 24h in Swiss albino male mice at […] per compound (administered orally in a mixture of 5 compounds to 3 mice) assessed by LCMS/MS.; assay type: ADME, organism-based; conditions: mouse, po

The cases that follow already have their concentration at 24 h on record.
COc1ccc(-c2c(C(F)(F)F)nc3cnc(-c4cccc(C(F)(F)C(F)(F)F)c4)cn23)cc1O	0.1 ng/mL
CC(C)c1nc2cnc(-c3ccc(F)c(C(F)(F)F)c3)nc2n1-c1c(F)cc(O)cc1F	5.17 ng/mL
COc1cc(-c2c(C(C)C)nc3cnc(-c4cccc(C(F)(F)F)c4)cn23)cc2cn[nH]c12	10.5 ng/mL
Fc1ccc(-c2cn3c(-c4ccc5[nH]ncc5c4F)c(C(F)(F)F)nc3cn2)cc1C1CC1	6.53 ng/mL
COc1ccc(-c2c(C)nc3ccc(-c4cccc(C(F)(F)F)c4)cn23)cc1O	0.1 ng/mL
Fc1ccc(-c2cn3c(-c4ccc5[nH]ncc5c4F)c(C4CC4)nc3cn2)cc1C(F)(F)F	176 ng/mL

[in] For the molecule Oc1cc(F)c(-c2c(C3CCC3)nc3cnc(-c4ccc(F)c(C(F)(F)F)c4)cn23)c(F)c1 , what concentration at 24 h is on record?
[out] 21.7 ng/mL

[in] Same lookup for Cc1nc2cnc(-c3ccc(F)c(C(F)(F)F)c3)cn2c1-c1c(F)cc(O)cc1F , please.
[out] 9.8 ng/mL

[in] What do you have for CC(C)c1nn2cnc(-c3cccc(C(F)(F)F)c3)cc2c1-c1c(F)cc(O)cc1F ?
[out] 0.1 ng/mL

* * *

experiment: Concentration required to kill 50% HepG2 cells as detected by MTT staining; type: toxicity, cell-based; details: homo sapiens, read-out: TC50 (the source's name)
reported-endpoint: CC50 (µM)
Respond with the bare value in µM.

Fc1ccc(-c2cn3c(-c4ccc5[nH]ncc5c4F)c(C(F)(F)F)nc3cn2)cc1C(F)(F)C(F)(F)F	11.7

[in] Any idea what its CC50 is? The compound is CC(C)c1cc(-c2cn3c(-c4ccc5[nH]ncc5c4F)c(C(F)(F)F)nc3cn2)ccn1
[out] 9.53

[in] Okay, and Fc1ccc(-c2cn3c(-c4ccc5[nH]ncc5c4F)c(C(F)(F)F)nc3cn2)cc1C(F)(F)F ?
[out] 16.6

[in] What do we get for Fc1ccc(-c2cn3c(-c4ccc5[nH]ncc5c4F)c(C(F)(F)F)nc3cn2)cc1OC(F)(F)F ?
[out] 12.2
